- measured_target: T1, PCSK9Δhelix (human PCSK9 lacking the P' helix, His-tagged) (human, UniProt Q8NBP7 31-152; Q8NBP7 168-692)
- T1 construct: Construct M1-Q692 with an engineered TEV site (Y166 and R167 deleted, ENLYFQS inserted between R165 and A168); also called His-PCSK9Δhelix; C-terminal (His)8-tagged PCSK9Δhelix
- T1 sequence (Q8NBP7 31-152, stated change not applied, chain 1 of 2): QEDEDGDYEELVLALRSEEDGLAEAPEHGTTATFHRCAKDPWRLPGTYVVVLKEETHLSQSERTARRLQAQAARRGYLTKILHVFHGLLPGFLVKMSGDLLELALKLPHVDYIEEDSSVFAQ
- T1 sequence (Q8NBP7 other isoform, or with tags, fused parts or gaps mutant, chain 2 of 2): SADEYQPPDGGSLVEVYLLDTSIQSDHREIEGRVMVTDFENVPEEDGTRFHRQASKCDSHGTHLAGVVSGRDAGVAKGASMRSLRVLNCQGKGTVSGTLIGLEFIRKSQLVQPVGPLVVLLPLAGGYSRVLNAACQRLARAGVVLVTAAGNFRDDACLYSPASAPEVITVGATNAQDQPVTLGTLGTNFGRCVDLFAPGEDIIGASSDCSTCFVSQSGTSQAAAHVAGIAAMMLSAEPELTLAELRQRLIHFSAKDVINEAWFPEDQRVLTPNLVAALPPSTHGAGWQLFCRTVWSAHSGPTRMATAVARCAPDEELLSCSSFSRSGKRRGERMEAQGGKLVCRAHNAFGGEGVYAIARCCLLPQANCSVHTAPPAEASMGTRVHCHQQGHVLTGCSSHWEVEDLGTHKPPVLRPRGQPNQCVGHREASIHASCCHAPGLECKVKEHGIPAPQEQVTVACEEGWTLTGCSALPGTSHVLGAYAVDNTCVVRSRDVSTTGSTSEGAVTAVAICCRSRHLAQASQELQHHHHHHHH
- assay_remarks: TR-FRET competition; His-PCSK9Δhelix with Ab20 as competitor ligand
Square brackets hold non-standard residues; d marks the D form. hArg = N=C(N)NCCCC[C@H](N)C(=O)O
endpoint_name: IC50 (nM)
Write the answer as a number in nM, unit excluded.

Give IC50 for Ac-WNLV[hArg]IGLLR-NH2 [Compound 192: Ac-WNLV(homoR)IGLLR-NH2]
5550

Give IC50 for Ac-DSYPGWNLV[hArg]IGLLR-NH2 (SMILES CC[C@H](C)[C@H](NC(=O)[C@H](CCCCNC(=N)N)NC(=O)[C@@H](NC(=O)[C@H](CC(C)C)NC(=O)[C@H](CC(N)=O)NC(=O)[C@H](Cc1c[nH]c2ccccc12)NC(=O)CNC(=O)[C@@H]1CCCN1C(=O)[C@H](Cc1ccc(O)cc1)NC(=O)[C@H](CO)NC(=O)[C@H](CC(=O)O)NC(C)=O)C(C)C)C(=O)NCC(=O)N[C@@H](CC(C)C)C(=O)N[C@@H](CC(C)C)C(=O)N[C@@H](CCCNC(=N)N)C(N)=O) [Compound 230: Ac-DSYPGWNLV(homoR)IGLLR-NH2]
2420

Give IC50 for Ac-ESFPGWNLV[hArg]IGLLR-NH2 (SMILES CC[C@H](C)[C@H](NC(=O)[C@H](CCCCNC(=N)N)NC(=O)[C@@H](NC(=O)[C@H](CC(C)C)NC(=O)[C@H](CC(N)=O)NC(=O)[C@H](Cc1c[nH]c2ccccc12)NC(=O)CNC(=O)[C@@H]1CCCN1C(=O)[C@H](Cc1ccccc1)NC(=O)[C@H](CO)NC(=O)[C@H](CCC(=O)O)NC(C)=O)C(C)C)C(=O)NCC(=O)N[C@@H](CC(C)C)C(=O)N[C@@H](CC(C)C)C(=O)N[C@@H](CCCNC(=N)N)C(N)=O) [Compound 227: Ac-ESFPGWNLV(homoR)IGLLR-NH2]
2510

Give IC50 for Ac-ESYPGWNLV[hArg]IGLLR-NH2 (SMILES CC[C@H](C)[C@H](NC(=O)[C@H](CCCCNC(=N)N)NC(=O)[C@@H](NC(=O)[C@H](CC(C)C)NC(=O)[C@H](CC(N)=O)NC(=O)[C@H](Cc1c[nH]c2ccccc12)NC(=O)CNC(=O)[C@@H]1CCCN1C(=O)[C@H](Cc1ccc(O)cc1)NC(=O)[C@H](CO)NC(=O)[C@H](CCC(=O)O)NC(C)=O)C(C)C)C(=O)NCC(=O)N[C@@H](CC(C)C)C(=O)N[C@@H](CC(C)C)C(=O)N[C@@H](CCCNC(=N)N)C(N)=O) [Compound 231: Ac-ESYPGWNLV(homoR)IGLLR-NH2]
1490

Give IC50 for Ac-MESFPGWNLV[hArg]IGLLR-NH2 (SMILES CC[C@H](C)[C@H](NC(=O)[C@H](CCCCNC(=N)N)NC(=O)[C@@H](NC(=O)[C@H](CC(C)C)NC(=O)[C@H](CC(N)=O)NC(=O)[C@H](Cc1c[nH]c2ccccc12)NC(=O)CNC(=O)[C@@H]1CCCN1C(=O)[C@H](Cc1ccccc1)NC(=O)[C@H](CO)NC(=O)[C@H](CCC(=O)O)NC(=O)[C@H](CCSC)NC(C)=O)C(C)C)C(=O)NCC(=O)N[C@@H](CC(C)C)C(=O)N[C@@H](CC(C)C)C(=O)N[C@@H](CCCNC(=N)N)C(N)=O) [Compound 229: Ac-MESFPGWNLV(homoR)IGLLR-NH2]
840

Give IC50 for Ac-SFAFPGWNLV[hArg]IGLLR-NH2 (SMILES CC[C@H](C)[C@H](NC(=O)[C@H](CCCCNC(=N)N)NC(=O)[C@@H](NC(=O)[C@H](CC(C)C)NC(=O)[C@H](CC(N)=O)NC(=O)[C@H](Cc1c[nH]c2ccccc12)NC(=O)CNC(=O)[C@@H]1CCCN1C(=O)[C@H](Cc1ccccc1)NC(=O)[C@H](C)NC(=O)[C@H](Cc1ccccc1)NC(=O)[C@H](CO)NC(C)=O)C(C)C)C(=O)NCC(=O)N[C@@H](CC(C)C)C(=O)N[C@@H](CC(C)C)C(=O)N[C@@H](CCCNC(=N)N)C(N)=O) [Compound 228: Ac-SFAFPGWNLV(homoR)IGLLR-NH2]
1370
